Parameter: Kd. Scope: all listed entries.
# System name: T1, CTNI quality control recombinant protein (PK2-CTNI-1, 170120, produced by the applicant) (human, UniProt P19429 2-210, limits assumed)
# T1 construct: also called cardiac troponin I
# T1 sequence (P19429 2-210 limits assumed): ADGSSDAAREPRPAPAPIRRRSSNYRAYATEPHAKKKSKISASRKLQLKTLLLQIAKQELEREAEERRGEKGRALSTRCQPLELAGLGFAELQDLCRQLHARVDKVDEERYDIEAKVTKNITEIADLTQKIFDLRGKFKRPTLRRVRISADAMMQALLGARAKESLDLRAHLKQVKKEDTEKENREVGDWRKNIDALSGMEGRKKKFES
# Measurement protocol: AMC sensor kinetics, antibody captured, cTnI analyte
# number only, unit nM dropped from output

Below, each entry is followed by its recorded Kd result.
Binder	Kd [nM]
Mutation 1-23 (antibody, V domains shown, built as for Mutation 1) VH: EVQLQQSGAELVKPGASVKLSCTASGFNIKDYYMHWMKQRTEQGLDWIGRIDPEDGETKYAPEFQGKATITADTSSNTAYLQLSTLTSEDTAVYYCARYYSSYIPFVYWGQGTLVTASA VL: DVVMTQTPLSLSVSLGDQASISCRSSQSILYSNRHTYLHWYLQKPGQSPKLLIFQISNRFSGVPDRFSGSGSGTDFTLKINRVEAEDLGVYFCSQSTHIPYTFGSGTKLEIKR	0.968
Mutation 1-1 (antibody, V domains shown, built as for Mutation 1) VH: EVQLQQSGAELVKPGASVKLSCTASGFNLKDYYMHWMKQRTEQGLDWIGRIDPEDAETKYAPEFQGKATITADTSSNTAYLQLSTLTSEDTAVYYCARYYSSYLPFVYWGQGTLVTASA VL: DVVMTQTPLSLSVSLGDQASISCRSSQSILYSNRHTYLHWYLQKPGQSPKLLIFQLSNRFSGVPDRFSGSGSGTDFTLKINRVEAEDLGVYFCSQSTHLPYTFGSGTKLEIKR	0.865
Mutation 1-29 (antibody, V domains shown, built as for Mutation 1) VH: EVQLQQSGAELVKPGASVKLSCTASGFNLKDYYMHWMKQRTEQGLDWIGRIDPEDGETKYAPEFQGKATITADTSSNTAYLQLSTLTSEDTAVYYCARYYSSYVPFVYWGQGTLVTASA VL: DVVMTQTPLSLSVSLGDQASISCRSSQSLLYSNRHTYLHWYLQKPGQSPKLLIFQVSNRFSGVPDRFSGSGSGTDFTLKINRVEAEDLGVYFCSQSTHLPYTFGSGTKLEIKR	0.698

Asked: Kd for Mutation 1-9 (antibody, V domains shown, built as for Mutation 1) VH: EVQLQQSGAELVKPGASVKLSCTASGFNLKDYYMHWMKQRTEQGLDWIGRIDPEDGETKYAPEFQGKATITADTSSNTAYLQLSTLTSEDTAVYYCARYYSSYIPFVYWGQGTLVTASA VL: DVVMTQTPLSLSVSLGDQASISCRSSQSLLYSNRHTYLHWYLQKPGQSPKLLIFQISNRFSGVPDRFSGSGSGTDFTLKINRVEAEDLGVYFCSQSTHIPYTFGSGTKLEIKR ?
Given back: 0.866

Asked: Kd for Mutation 1-10 (antibody, V domains shown, built as for Mutation 1) VH: EVQLQQSGAELVKPGASVKLSCTASGFNIKDYFMHWMKQRTEQGLDWIGRIDPEDAETRYAPEFQGKATITADTSSNTAYLQLSTLTSEDTAVYYCARYYSSYLPFVYWGQGTLVTASA VL: DVVMTQTPLSLSVSLGDQASISCRSSQSIIYSNRHTYLHWYLQKPGQSPKLLIFQLSNRFSGVPDRFSGSGSGTDFTLKINRVEAEDLGVYFCSQSTHLPYTFGSGTKLEIKR ?
Given back: 0.922

Asked: Kd for Mutation 1-40 (antibody, V domains shown, built as for Mutation 1) VH: EVQLQQSGAELVKPGASVKLSCTASGFNLKDYYMHWMKQRTEQGLDWIGRIDPEDGETKYAPEFQGKATITADTSSNTAYLQLSTLTSEDTAVYYCARYYSSYIPFVYWGQGTLVTASA VL: DVVMTQTPLSLSVSLGDQASISCRSSQSLLYSNRHTYLHWYLQKPGQSPKLLIFQISNRFSGVPDRFSGSGSGTDFTLKINRVEAEDLGVYFCSQSTHLPFTFGSGTKLEIKR ?
Given back: 0.818

Asked: Kd for Mutation 1-33 (antibody, V domains shown, built as for Mutation 1) VH: EVQLQQSGAELVKPGASVKLSCTASGFNLKDYYMHWMKQRTEQGLDWIGRIDPEDAETKYAPEFQGKATITADTSSNTAYLQLSTLTSEDTAVYYCARYYSSYVPFVYWGQGTLVTASA VL: DVVMTQTPLSLSVSLGDQASISCRSSQSLIYSNRHTYLHWYLQKPGQSPKLLIFQVSNRFSGVPDRFSGSGSGTDFTLKINRVEAEDLGVYFCSQSTHIPFTFGSGTKLEIKR ?
Given back: 0.986

Asked: Kd for Mutation 1-24 (antibody, V domains shown, built as for Mutation 1) VH: EVQLQQSGAELVKPGASVKLSCTASGFNLKDYFMHWMKQRTEQGLDWIGRIDPEDAETRYAPEFQGKATITADTSSNTAYLQLSTLTSEDTAVYYCARYYSSYVPFVYWGQGTLVTASA VL: DVVMTQTPLSLSVSLGDQASISCRSSQSLLYSNRHTYLHWYLQKPGQSPKLLIFQVSNRFSGVPDRFSGSGSGTDFTLKINRVEAEDLGVYFCSQSTHIPFTFGSGTKLEIKR ?
Given back: 0.408
